Below: a set of entries, each annotated with reported IC50.
Target: recombinant human mGluR2 (Homo sapiens (Human))
Sequence (Q14416 19-872): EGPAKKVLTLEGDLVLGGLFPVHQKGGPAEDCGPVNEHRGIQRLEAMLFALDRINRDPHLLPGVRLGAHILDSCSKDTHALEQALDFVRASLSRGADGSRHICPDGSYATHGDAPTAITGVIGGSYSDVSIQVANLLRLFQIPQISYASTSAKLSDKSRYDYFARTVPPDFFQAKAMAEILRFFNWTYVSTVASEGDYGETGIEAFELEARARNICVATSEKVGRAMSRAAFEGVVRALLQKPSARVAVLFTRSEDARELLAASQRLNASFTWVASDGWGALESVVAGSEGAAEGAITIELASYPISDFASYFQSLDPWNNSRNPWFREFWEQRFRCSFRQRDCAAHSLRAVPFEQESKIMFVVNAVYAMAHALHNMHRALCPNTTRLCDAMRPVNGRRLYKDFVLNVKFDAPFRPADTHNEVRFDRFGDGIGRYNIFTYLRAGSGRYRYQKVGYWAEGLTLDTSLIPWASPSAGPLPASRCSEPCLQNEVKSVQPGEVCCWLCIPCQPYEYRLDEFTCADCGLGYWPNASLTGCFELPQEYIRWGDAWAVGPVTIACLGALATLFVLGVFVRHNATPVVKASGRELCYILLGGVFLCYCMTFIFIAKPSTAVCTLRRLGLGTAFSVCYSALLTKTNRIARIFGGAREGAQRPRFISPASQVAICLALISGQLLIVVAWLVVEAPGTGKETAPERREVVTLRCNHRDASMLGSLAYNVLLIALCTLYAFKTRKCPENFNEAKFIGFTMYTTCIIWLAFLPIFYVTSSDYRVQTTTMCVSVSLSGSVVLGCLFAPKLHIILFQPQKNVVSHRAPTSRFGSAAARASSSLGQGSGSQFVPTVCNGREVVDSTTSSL
Test: FLIPR Ca2+ mobilization antagonist assay in CHO dhfr- cells expressing human mGluR2 and Gα16
Conditions: antagonist response after addition of 2,500 nM glutamate, Fluo-4 AM, FLIPR384
observable: IC50 (nM)

molecular string: Cc1ncc(-c2cc(C(N)=O)nc3c2CCN(Cc2ccnc(OC(F)F)c2)C3)s1
unit annotation: nM
recorded measurement: 18.6
//
molecular string: NC(=O)c1cccc(CN2CCc3c(-c4ccc(F)cc4)cc(C(N)=O)nc3C2)c1
unit annotation: nM
recorded measurement: 52.7
//
molecular string: Cc1cnn(C)c1CN1CCc2c(-c3ccc(F)cc3F)cc(C(N)=O)nc2C1
unit annotation: nM
recorded measurement: 21.8
//
molecular string: COc1nccc(CN2CCc3c(-c4ccc(Cl)cc4F)cc(C(N)=O)nc3C2)n1
unit annotation: nM
recorded measurement: 14.2
//
molecular string: NC(=O)c1cc(-c2c(F)cc(F)cc2F)c2c(n1)CN(Cc1ccnc(C(F)(F)F)n1)CC2
unit annotation: nM
recorded measurement: 13.2
//
molecular string: NC(=O)c1cc(-c2ccccc2Cl)c2c(n1)CN(Cc1ccnc(C(F)(F)F)n1)CC2
unit annotation: nM
recorded measurement: 19.7
//
molecular string: NC(=O)c1cc(-c2ccc(F)cc2)c2c(n1)CN(Cc1ccccc1C(N)=O)CC2
unit annotation: nM
recorded measurement: 28.2
//
molecular string: COc1ccnc(CN2CCc3c(-c4ccc(Cl)cc4F)cc(C(N)=O)nc3C2)n1
unit annotation: nM
recorded measurement: 11.7
